Collected folding stability dG unfold values appear next to each entry.
assay overview: folding stability dG unfold from trypsin proteolysis; higher = more stable
Entry rule: numbers only, all in kcal/mol.

1. SAGGSGMSFSITEEVVIPTPGPRTLLLLKTEGDIIIVERDGERLRPVKTVPRKEVPEEPEKLIEELSAGGSA [r2_133_JUSTAS] = -1.07
2. SAGGSAGGSAGGKEIPLDEVKDIQPSNDKWYVVFPGKPQRFPPDDIPIPPGKPIRIYPLSAGGSAGGSAGGS [r10_665_TrROS] = 0.338
3. SAGGSAGGSAGKVKVKVESNPDGTLIIAEEFEDFVVIVELKVDDDGIHFHPHPVVLSKELSAGGSAGGSAGG [r17_72_TrMRF] = 0.0484

Next sequence, please.
Q: Fill in: folding stability dG unfold of SAGGSAGGSAGGDPKKKKGGTFTLTFKLKFTVNIPEGKVEYEFKAKIKITINEPPDFGLSSAGGSAGGSAGG [r7_485_TrMRF] is ___
A: 3.81

----------
assay overview: folding stability dG unfold (combined trypsin and chymotrypsin); higher = more stable
readout label: folding stability dG unfold

Reference set (6 entries):
1) SAGGSAGGSAGMVETVSTTTSVETGPDSTRYTTTTTTVLVTDSSGTPIATTTTTTTTVTASAGGSAGGSAGG [r17_139_JUSTAS] = 0.986 kcal/mol
2) SAGGAKITVDDNKITIELPLPNGKPAGSINEPLPDGSSRILVKFPDFVLHLEITPEGIKIASIDNNKDSAGG [r13_619_TrMRF] = 1.51 kcal/mol
3) SAGKITLDGFTLDGEQTLTLTVEVPAPGGGTRTETFTATVTFDPETGTAHVPVTLPNGEELPFTFKVDASAG [r5_743_TrMRF] = 1.42 kcal/mol
4) SAGGSAKKTIKITIEVDGKTIEITKITVNENGEVTIEVKITNKNGKETKTIKITMTVEELKALLKSSAGGSA [r15_56_TrROS_Hall] = 2.18 kcal/mol
5) SAGGSAGGSAGGLLRAPDGSTAIVVRDASPETVARALHELNPNAVIVVAPIPNVAVIYLDSAGGSAGGSAGG [r7_370_TrMRF] = -0.575 kcal/mol
6) SAGGMTLTLIVPSKEEAERLAEALRALLPPGAKLEITVEEVTLKEDLPPDLPEVKEKKYLVVTIRLDSAGGS [r16_795_TrROS_Hall] = 3.34 kcal/mol

Q: Tell me the measured folding stability dG unfold of SAGGSAGGSAGGKKIEIPGFEITKVEPLENDSVIAEGKFKNGKKYRILFLPNKVYINDESAGGSAGGSAGGS [r10_312_TrMRF] , please.
A: 0.357 kcal/mol

----------
assay overview: folding stability dG unfold from chymotrypsin proteolysis; higher = more stable
Use yes (1) when the recorded folding stability dG unfold is no lower than 0.8 kcal/mol; use no (0) when it is lower.

See these solved cases before continuing.
1) SAGGSAGGSAGKKVKISLILIAKSPEEAEEAAKAIKEAFGSEDVEVDIIEIPAKLGPGKLSAGGSAGGSAGG [r17_285_TrMRF] = no (0)
2) SAGGSAGGSAGIVIPLDGRPIVIDMYPNGYMRIEVEPPNGKKKTRTFPGAPIEDILKAIKSAGGSAGGSAGG [r11_934_TrROS] = no (0)
3) SKKTVYRIVIELENGEKLEIEVPLGSEVKIEKKEDGTITITVNGKKIEIKLKPGEKAKIVKIEKLPEEEESA [r9_773_TrROS_Hall] = yes (1)
4) SAGGSAGGSAGGGRVLRLADGKWRLVELPDGSVVLVPENVPVLDPEAKEPVLVAPVLPLDSAGGSAGGSAGG [r7_968_TrMRF] = yes (1)
5) SAGGSAMSQEEIENKPIEEIAKAILENFPGNTKVEHEFTFKDGSKLRIVVELPEDGEPKIEAEPIGSAGGSA [r15_857_TrMRF] = no (0)

Q: Reported folding stability dG unfold reaches at least 0.8 kcal/mol for SAGGMPVTVTIVVPPGTERELAEELAEKYAKEGADVEFEERPGGLVLTMTLPGGEVVTMEIRDPAQASAGGS [r16_406_JUSTAS] ?
A: yes (1)

Q: Now consider SAGPKITVKKLPDGSYLLLIEVPHEGGPSSRALIPYNPKTGKLELLEIETTHEEIKDKLIELAEELRKSSAG [r5_266_TrMRF] and answer again.
A: yes (1)

FYI, the data here is from the supplement of paper PMC12764529.
